Where do these numbers come from? They come from patent US8765773B2.

# target_of_assay: purified human HDAC6 (Homo sapiens)
# Construct: purchased BPS Bioscience 5006
# Sequence (Q9UBN7 1-1215): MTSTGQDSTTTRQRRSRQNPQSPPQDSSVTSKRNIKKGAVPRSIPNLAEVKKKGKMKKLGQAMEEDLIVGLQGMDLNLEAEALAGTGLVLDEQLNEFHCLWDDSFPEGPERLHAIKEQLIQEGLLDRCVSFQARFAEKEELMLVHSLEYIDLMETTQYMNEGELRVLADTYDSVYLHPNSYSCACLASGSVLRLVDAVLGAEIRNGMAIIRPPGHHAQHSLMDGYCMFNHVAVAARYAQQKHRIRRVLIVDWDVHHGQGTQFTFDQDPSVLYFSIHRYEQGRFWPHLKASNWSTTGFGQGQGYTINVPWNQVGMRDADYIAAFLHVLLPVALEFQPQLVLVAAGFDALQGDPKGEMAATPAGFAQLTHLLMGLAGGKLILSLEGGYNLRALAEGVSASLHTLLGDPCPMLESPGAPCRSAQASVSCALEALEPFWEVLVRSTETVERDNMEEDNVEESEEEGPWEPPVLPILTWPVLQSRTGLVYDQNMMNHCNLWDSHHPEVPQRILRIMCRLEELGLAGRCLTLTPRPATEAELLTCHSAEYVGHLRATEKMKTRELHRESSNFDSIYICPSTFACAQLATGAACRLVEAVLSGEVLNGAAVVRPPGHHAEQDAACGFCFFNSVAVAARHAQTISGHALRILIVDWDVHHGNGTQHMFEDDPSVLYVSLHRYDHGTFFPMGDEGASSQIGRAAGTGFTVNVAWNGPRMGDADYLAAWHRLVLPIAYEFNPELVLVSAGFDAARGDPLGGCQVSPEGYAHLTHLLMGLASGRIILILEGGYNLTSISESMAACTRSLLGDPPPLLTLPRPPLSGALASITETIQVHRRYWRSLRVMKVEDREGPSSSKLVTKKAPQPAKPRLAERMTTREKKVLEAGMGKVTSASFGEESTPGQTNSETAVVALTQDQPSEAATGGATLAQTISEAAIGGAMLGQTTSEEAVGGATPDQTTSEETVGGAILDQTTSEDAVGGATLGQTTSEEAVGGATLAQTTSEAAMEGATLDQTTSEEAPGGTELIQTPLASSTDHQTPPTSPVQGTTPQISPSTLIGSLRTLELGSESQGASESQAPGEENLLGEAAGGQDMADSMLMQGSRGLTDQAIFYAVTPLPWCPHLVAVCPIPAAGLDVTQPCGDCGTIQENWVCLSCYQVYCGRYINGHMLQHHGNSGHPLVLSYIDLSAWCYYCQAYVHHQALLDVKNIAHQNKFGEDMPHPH
# protocol_summary: HDAC6 Enzyme Assay
# Format: biochemical
# test_context: compound concentration 0.412 μM, read-out: Percent Inhibition
# Experimental: To measure the inhibition of HDAC6 activity, purified human HDAC6 (BPS Bioscience; Cat. No. 5006) is incubated with substrate Ac-Arg-Gly-Lys(Ac)-AMC peptide (Bachem Biosciences; Cat. No. I-1925) for 1 hour at 30° C. in the presence of test compounds or vehicle DMSO control. […]
Readings of inhibition at 0.412 µM for the listed compounds
Only the number, expressed in %, is required.

Consider the worked cases shown below.
CCOCCn1ccc2ccc(C(=O)NO)cc2c1=O [Compound I-218] = 90.4
CC(C)(C)OC(=O)Nc1cccc(Cn2ccc3ccc(C(=O)NO)cc3c2=O)c1 [Compound I-266] = 87.9

The record that follows has no inhibition at 0.412 µM shown yet.
Lab note: need inhibition at 0.412 µM with purified human HDAC6 (Homo sapiens) for entry O=C(NO)c1ccc2ncn(Cc3ccccc3C(F)(F)F)c(=O)c2c1 [Compound I-36] , please look it up.
91.8
